FYI, the data here is from patent US20240417446A1.

# systemTested: T1, SARS-CoV-2 spike trimer (40589-V08H4) (SARS-CoV-2, UniProt P0DTC2 14-1213)
# T1 construct: extracellular domain
# testProtocol: ELISA, A450, nanobody at 10ug/mL, Spike Trimer coated at 2 ug/mL
Note to self: values exactly at 0.7 are satisfied. So ELISA (A450) at 10ug/mL at or above 0.7 is satisfied, below is not satisfied.

In plain terms: is recorded ELISA (A450) at 10ug/mL at least 0.7 for NCI-CoV-S2A9 (VNAR) VNAR: ARVDQTPRSVTKETGESLTINCVLRDASYALGRTCWYRKKSGSTNEESISKGGRYVETVNSGSKSFSLRINDLTVEDGGTYRCGVSTPWSCDYGPLCFYAACGDGTVVTVN ? not satisfied

In plain terms: is recorded ELISA (A450) at 10ug/mL at least 0.7 for NCI-CoV-S4A9 (VNAR) VNAR: ARVDQTPRSVTKETGESLTINCVLRDASYALGSTCWYRKKSGSTNEESISKGGRYVETVNSGSKSFSLRINDLTVEDGGTYRCGVQSRWGAVPKLCSNYAACGDGTAVTVN ? satisfied

In plain terms: is recorded ELISA (A450) at 10ug/mL at least 0.7 for NCI-CoV-CG2G2 (VHH) VHH: AVQLVESGGGSVPPGGSLTLSCTVSDNIFRTYAVGWFRQAPEKRCQWIATLNADESTEYNVAVTGRFTISRDNSGRSVYLQMDNLNSEDTAIYYCASLARKWSCHDSWGRGTQVTVSS ? satisfied

In plain terms: is recorded ELISA (A450) at 10ug/mL at least 0.7 for NCI-CoV-CL3H4 (VHH) VHH: DVQLVESGGGAVKPGGSLTLTCTVQEGSRNCVGWFRQGSGKDRQAVAMINGNGGTTNYDDRVKGRFQISRDGSLVHLRMNDVKLGDTDIYYCRQGQTYDCWGGTWTDSGWGQGTQVTVSS ? not satisfied

In plain terms: is recorded ELISA (A450) at 10ug/mL at least 0.7 for NCI-CoV-S3A10 (VNAR) VNAR: ARVDQTPRSVTKETGESLTINCVLRDASYALGSTCWYRKKSGSTNEESISKGGRYVETVNSGSKSFSLRINDLTVEDGGTYRCGRIQNTKAVLLPCVYAACGDGTVVTVN ? satisfied

In plain terms: is recorded ELISA (A450) at 10ug/mL at least 0.7 for NCI-CoV-S2G8 (VNAR) VNAR: ARVDQTPQTITKETGESLTINCVLRDSNCPLSNTYWYRKKSGSTNEESISKGGRYVETVNSGSKSFSLRINDLTVEDSGTYRCKVRTHWSICWEMGLEPNYDVYGGGTVVTVN ? not satisfied

In plain terms: is recorded ELISA (A450) at 10ug/mL at least 0.7 for NCI-CoV-CGH3 (VHH) VHH: AVQLVESGGGLVQPGGSLRLSCAASGFTFSSYAMGWVRQAPGKGLEWISAINSGGDIRYYADSVKGRFTISRDNAKNTLYLQMNSLKPEDTAVYYCATDDEILSYGLGTSFDYWGQGTQVTVSS ? not satisfied

In plain terms: is recorded ELISA (A450) at 10ug/mL at least 0.7 for NCI-CoV-CGF10 (VHH) VHH: AVQLVESGGGLVQPGGSLRLSCAASGFTFSSYGMHWVRQAPGKGLERVAGINWDGSNSYYTETVKGRFTISRDNAKNTAYLQMNSLKPEDTAMYYCRTLILDSDCDPGSTYRYAWGQGTQVTVSS ? satisfied

In plain terms: is recorded ELISA (A450) at 10ug/mL at least 0.7 for NCI-CoV-CLA2 (VHH) VHH: QVQLVESGGGSVQPGGSLRLSCAVSGYTSSSYCFGWFRQAPGKDREGIIAMEPGNTYTAGAVKGRFTISRDNAKNMVYLQMNSLKPDDTAMYYCAASPYPGTWLNPDLFDTWGQGTQVTVSS ? not satisfied
